Hello, the source for this data is ChEMBL document CHEMBL5346904, in case you need it.

# Protocol text: Hemolytic activity in human RBC assessed as hemolysis incubated for 1 hr by absorbance based microplate reader analysis
# Type: toxicity, cell-based, Erythrocyte
# Reported conditions: human red blood cells (erythrocytes)
Test readout: EC50 at 1 h

Take a look at these entries with their results.
NCCCCN1C(=O)N(CCCCN)C(Cc2cc(C(F)(F)F)cc(C(F)(F)F)c2)(Cc2cc(C(F)(F)F)cc(C(F)(F)F)c2)C1=O.O=C(O)C(F)(F)F.O=C(O)C(F)(F)F	> 461 µg/mL
NCCCN1C(=O)N(CCCN)C(Cc2ccccc2)(Cc2ccccc2)C1=O.O=C(O)C(F)(F)F.O=C(O)C(F)(F)F	> 311 µg/mL
N=C(N)NCCCN1C(=O)N(CCCNC(=N)N)C(Cc2cc(C(F)(F)F)cc(C(F)(F)F)c2)(Cc2cc(C(F)(F)F)cc(C(F)(F)F)c2)C1=O	> 489 µg/mL
NCCCN1C(=O)N(CCCN)C(Cc2ccc(C(F)(F)F)cc2)(Cc2ccc(C(F)(F)F)cc2)C1=O.O=C(O)C(F)(F)F.O=C(O)C(F)(F)F	> 379 µg/mL
N=C(N)NCCCN1C(=O)N(CCCNC(=N)N)C(Cc2ccc(C(F)(F)F)cc2)(Cc2ccc(C(F)(F)F)cc2)C1=O.O=C(O)C(F)(F)F.O=C(O)C(F)(F)F	> 421 µg/mL

From here, focus on the item given below.
Ask: Dear colleague, I am looking for the recorded EC50 at 1 h of the following compound: N=C(N)NCCCN1C(=O)N(CCCNC(=N)N)C(Cc2ccccc2)(Cc2ccccc2)C1=O.O=C(O)C(F)(F)F.O=C(O)C(F)(F)F
Result: > 353 µg/mL
